assay_text: 2nd Phase I study, single i.v. dose 48 or 150 mg, healthy male volunteers
Assay type: in vivo, human
condition_description: male, human, plasma, iv; 48 mg single i.v. infusion, healthy volunteers, mean ± SE; read-out: Vss
experimental_endpoint: Vd (L/kg)
# value in L/kg; strip the unit string

Quick note, Vd for CCCCCCC(C)(C)c1cc(O)c2c(c1)OC(C)(C)[C@H]1CC=C(CO)C[C@H]21 [dexanabinol] landed at 6.6

* * *

assay_text: Phase II study, single i.v. dose in patients with severe head trauma
Assay type: in vivo, human
condition_description: human, plasma, iv; 48 mg single i.v. infusion (n = 10), severe TBI patients, mean ± SE, up to 24 hr
experimental_endpoint: AUC (ng·h/mL)
State the answer as a number, implicitly in ng·h/mL.

# molecule CCCCCCC(C)(C)c1cc(O)c2c(c1)OC(C)(C)[C@H]1CC=C(CO)C[C@H]21 ; its AUC = 548

* * *

assay_text: Phase II study, single i.v. dose in patients with severe head trauma
Assay type: in vivo, human
condition_description: human, plasma, iv; 48 mg single i.v. infusion (n = 10), severe TBI patients, mean ± SE
experimental_endpoint: half-life

Data point: CCCCCCC(C)(C)c1cc(O)c2c(c1)OC(C)(C)[C@H]1CC=C(CO)C[C@H]21 ; half-life = 7 h

* * *

assay_text: 1st Phase I study, rising single i.v. dose, healthy male volunteers
Assay type: in vivo, human
condition_description: male, human, plasma, iv; 100 mg single i.v. infusion, healthy volunteers, mean ± SE
experimental_endpoint: clearance (mL/min/kg)
Write the number in mL/min/kg without appending the unit.

The molecule listed as CCCCCCC(C)(C)c1cc(O)c2c(c1)OC(C)(C)[C@H]1CC=C(CO)C[C@H]21 shows clearance equal to 17.8

* * *

assay_text: 1st Phase I study, rising single i.v. dose, healthy male volunteers
Assay type: in vivo, human
condition_description: male, human, plasma, iv; 200 mg single i.v. infusion, healthy volunteers, mean ± SE, up to 24 hr
experimental_endpoint: Cmax (ng/mL)
Kindly answer with a numeric value in ng/mL, unit omitted.

Record CCCCCCC(C)(C)c1cc(O)c2c(c1)OC(C)(C)[C@H]1CC=C(CO)C[C@H]21 . Reported Cmax: 4570

* * *

assay_text: 1st Phase I study, rising single i.v. dose, healthy male volunteers
Type: in vivo, human
condition_description: male, human, plasma, iv; 100 mg single i.v. infusion, healthy volunteers, mean ± SE, up to 24 hr
experimental_endpoint: Cmax (ng/mL)
Please state the figure in ng/mL; there is no need to write the unit.

According to the records, this compound CCCCCCC(C)(C)c1cc(O)c2c(c1)OC(C)(C)[C@H]1CC=C(CO)C[C@H]21 [dexanabinol] displays Cmax of 2890

* * *

assay_text: 2nd Phase I study, single i.v. dose 48 or 150 mg, healthy male volunteers
Format: in vivo, human
condition_description: male, human, plasma, iv; 150 mg single i.v. infusion, healthy volunteers, mean ± SE, up to 96 hr
experimental_endpoint: half-life (h)
Kindly provide the numeric value in h only, without the unit symbol.

Value of half-life reported for the compound CCCCCCC(C)(C)c1cc(O)c2c(c1)OC(C)(C)[C@H]1CC=C(CO)C[C@H]21 is 23.4

* * *

assay_text: single dose toxicity and pharmacokinetics, monkey
Format: in vivo, Cynomolgus monkeys
condition_description: both sexes, cynomolgus monkey, plasma, iv; monkey male & female, single i.v. 50 mg/kg (NOAEL)
experimental_endpoint: AUC(0-inf)
Please don't drop the unit; write it after the number.

What the record says about CCCCCCC(C)(C)c1cc(O)c2c(c1)OC(C)(C)[C@H]1CC=C(CO)C[C@H]21 : AUC(0-inf) is 127 µg·h/mL
